# System: 883617-216-R-J1-PDC complex spheroid viability
# measurement.protocol: Anticancer human tumor 883617-216-R-J1-PDC patient-derived bladder carcinoma cell line growth inhibition
# condition.details: second compound 3.16 µM; first compound 0.1 µM; stronger effect = lower value
Binary label based on viability, T/C with cut-off 30%: below gives 1, not below gives 0.

Look over these answered cases.
CC(C)CC(NC(=O)CNC(=O)c1cc(Cl)ccc1Cl)B1OC(=O)CC(CC(=O)O)(C(=O)O)O1 (configuration not stated) + NC1CC1c1ccc(-c2cccc(O)c2)cc1 = 1
CC(C)CC(NC(=O)C(Cc1ccccc1)NC(=O)c1cnccn1)B(O)O (configuration not stated) + NC1CC1c1ccc(-c2cccc(O)c2)cc1 = 1
COc1cc(Nc2ncc3c(n2)-c2ccc(Cl)cc2C(c2c(F)cccc2OC)=NC3)ccc1C(=O)O + NC1CC1c1ccc(-c2cccc(O)c2)cc1 = 0
CC(C)c1c(-c2ccccc2)nc2c(C#N)c[nH]n2c1=O + NC1CCC(NC2CC2c2ccccc2)CC1 = 0
CC[C@@]1(O)C(=O)OCc2c1cc1n(c2=O)Cc2cc3c(CN(C)C)c(O)ccc3nc2-1 + NC1CC1c1ccc(-c2cccc(O)c2)cc1 = 1

Query: Please state whether viability, T/C is below 30% for COc1ccc([C@@H](O)c2cc(-c3ncnc4cc(N5CCOCC5)ccc34)c(F)cc2Cl)nn1 + NC1CCC(NC2CC2c2ccccc2)CC1
Reply: 0

Query: Is the reported viability, T/C for Cn1ncnc1C1c2n[nH]c(=O)c3cc(F)cc(c23)NC1c1ccc(F)cc1 (configuration not stated) + NC1CC1c1ccc(-c2cccc(O)c2)cc1 strictly below 30%?
Reply: 0

----------
# Tested on: 883617-216-R-J1-PDC complex spheroid viability
# measurement.protocol: Anticancer human tumor 883617-216-R-J1-PDC cell line growth inhibition;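 note: exposure lasted seven days after three days of spheroid growth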;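 for viability, T/C: 100% = DMSO vehicle control luminescence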
# condition.details: second compound 3.16 µM; first compound 3.16 µM; stronger effect = lower value
One threshold, 40%, splits the recorded viability, T/C values: lower ones are 1, equal or higher ones are 0.

CC1(C)CCC(CN2CCN(c3ccc(C(=O)NS(=O)(=O)c4ccc(NCC5CCOCC5)c([N+](=O)[O-])c4)c(Oc4cnc5[nH]ccc5c4)c3)CC2)=C(c2ccc(Cl)cc2)C1 + NC1CCC(NC2CC2c2ccccc2)CC1 = 0
COc1ccc([C@@H](O)c2cc(-c3ncnc4cc(N5CCOCC5)ccc34)c(F)cc2Cl)nn1 + NC1CC1c1ccc(-c2cccc(O)c2)cc1 = 1
O=C(c1cc(Cc2n[nH]c(=O)c3ccccc23)ccc1F)N1CCN(C(=O)C2CC2)CC1 + NC1CCC(NC2CC2c2ccccc2)CC1 = 0
CC1(C)CCC(CN2CCN(c3ccc(C(=O)NS(=O)(=O)c4ccc(NCC5CCOCC5)c([N+](=O)[O-])c4)c(Oc4cnc5[nH]ccc5c4)c3)CC2)=C(c2ccc(Cl)cc2)C1 + NC1CC1c1ccc(-c2cccc(O)c2)cc1 = 0

Query: In plain terms, does CC1COCCN1c1cc(C2(S(C)(=N)=O)CC2)nc(-c2ccnc3[nH]ccc23)n1 (stereo not given) + NC1CC1c1ccc(-c2cccc(O)c2)cc1 come in under 40% for viability, T/C?
Reply: 1

Query: For this compound, is viability, T/C lower than 40%? COc1ccc([C@@H](O)c2cc(-c3ncnc4cc(N5CCOCC5)ccc34)c(F)cc2Cl)nn1 + NC1CCC(NC2CC2c2ccccc2)CC1
Reply: 1

Query: # strict comparison: is reported viability, T/C < 40%? input = CC(C)c1c(-c2ccccc2)nc2c(C#N)c[nH]n2c1=O + NC1CCC(NC2CC2c2ccccc2)CC1
Reply: 0

Query: hey, is viability, T/C for O=C(c1cc(Cc2n[nH]c(=O)c3ccccc23)ccc1F)N1CCN(C(=O)C2CC2)CC1 + NC1CC1c1ccc(-c2cccc(O)c2)cc1 lower than 40% or not?
Reply: 1

Query: Check if viability, T/C falls below 40% for CC(C)c1c(-c2ccccc2)nc2c(C#N)c[nH]n2c1=O + NC1CC1c1ccc(-c2cccc(O)c2)cc1 .
Reply: 0

----------
Exercise: state measured viability, T/C for each of the compounds provided.
# Test system: 883617-216-R-J1-PDC complex spheroid viability
# measurement.protocol: Anticancer human tumor 883617-216-R-J1-PDC cell line growth inhibition;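 note: exposure lasted seven days after three days of spheroid growth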;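 for viability, T/C: 100% = DMSO vehicle control luminescence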
# condition.details: second compound 1 µM; first compound 0.01 µM; stronger effect = lower value
Give bare numbers, in %.

For each of the compounds below, note its viability, T/C.
1. O=C(C=Cn1cnc(-c2cc(C(F)(F)F)cc(C(F)(F)F)c2)n1)NNc1cnccn1 + NC1CCC(NC2CC2c2ccccc2)CC1
2. O=C(C=Cn1cnc(-c2cc(C(F)(F)F)cc(C(F)(F)F)c2)n1)NNc1cnccn1 + NC1CC1c1ccc(-c2cccc(O)c2)cc1
3. CC(C)CC(NC(=O)CNC(=O)c1cc(Cl)ccc1Cl)B1OC(=O)CC(CC(=O)O)(C(=O)O)O1 (stereo not drawn) + NC1CCC(NC2CC2c2ccccc2)CC1

Reply:
1: 51; 2: 28.1; 3: 29

Go through the items and report each one's viability, T/C.
1. CC[C@@]1(O)C(=O)OCc2c1cc1n(c2=O)Cc2cc3c(CN(C)C)c(O)ccc3nc2-1 + NC1CCC(NC2CC2c2ccccc2)CC1
2. COc1cc(Nc2ncc3c(n2)-c2ccc(Cl)cc2C(c2c(F)cccc2OC)=NC3)ccc1C(=O)O + NC1CCC(NC2CC2c2ccccc2)CC1
3. Cn1ncnc1C1c2n[nH]c(=O)c3cc(F)cc(c23)NC1c1ccc(F)cc1 (stereo not drawn) + NC1CCC(NC2CC2c2ccccc2)CC1
4. CC[C@@]1(O)C(=O)OCc2c1cc1n(c2=O)Cc2cc3c(CN(C)C)c(O)ccc3nc2-1 + NC1CC1c1ccc(-c2cccc(O)c2)cc1
5. COc1cc(Nc2ncc3c(n2)-c2ccc(Cl)cc2C(c2c(F)cccc2OC)=NC3)ccc1C(=O)O + NC1CC1c1ccc(-c2cccc(O)c2)cc1

Reply:
[44.2, 75.7, 93.9, 27.2, 60.9]

----------
# Tested on: 883617-216-R-J1-PDC complex spheroid viability
# measurement.protocol: Anticancer human tumor 883617-216-R-J1-PDC cell line growth inhibition;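 note: exposure lasted seven days after three days of spheroid growth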
# condition.details: curve of first compound; second compound 3.16 µM
pIC50: −log10 of the molar value.
quantity.measured: pIC50

Answered cases to consult:
COc1cc(Nc2ncc3c(n2)-c2ccc(Cl)cc2C(c2c(F)cccc2OC)=NC3)ccc1C(=O)O + NC1CCC(NC2CC2c2ccccc2)CC1 = < 6.00
CC(C)CC(NC(=O)CNC(=O)c1cc(Cl)ccc1Cl)B1OC(=O)CC(CC(=O)O)(C(=O)O)O1 (stereo not drawn) + NC1CC1c1ccc(-c2cccc(O)c2)cc1 = 8.58

Turning now to a further compound:
Query: I am curious: what pIC50 value has been reported for Nc1ncn(C2CC(O)C(CO)O2)c(=O)n1 (stereo not drawn) + NC1CC1c1ccc(-c2cccc(O)c2)cc1 ?
Reply: < 6.00

----------
# Tested on: 883617-216-R-J1-PDC complex spheroid viability
# measurement.protocol: Anticancer human tumor 883617-216-R-J1-PDC cell line growth inhibition;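 note: exposure lasted seven days after three days of spheroid growth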;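 for viability, T/C: 100% = DMSO vehicle control luminescence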
# condition.details: second compound 0.1 µM; first compound 0.0316 µM; stronger effect = lower value
Assign viability, T/C to each entry below.
Give bare numbers, in %.

Recorded viability, T/C, per entry:
CC[C@@]1(O)C(=O)OCc2c1cc1n(c2=O)Cc2cc3c(CN(C)C)c(O)ccc3nc2-1 + NC1CCC(NC2CC2c2ccccc2)CC1 = 33.8
CC[C@@]1(O)C(=O)OCc2c1cc1n(c2=O)Cc2cc3c(CN(C)C)c(O)ccc3nc2-1 + NC1CC1c1ccc(-c2cccc(O)c2)cc1 = 24.3
CC(C)c1c(-c2ccccc2)nc2c(C#N)c[nH]n2c1=O + NC1CCC(NC2CC2c2ccccc2)CC1 = 106
CC1COCCN1c1cc(C2(S(C)(=N)=O)CC2)nc(-c2ccnc3[nH]ccc23)n1 (stereo unspecified) + NC1CC1c1ccc(-c2cccc(O)c2)cc1 = 97.8
Cn1ncnc1C1c2n[nH]c(=O)c3cc(F)cc(c23)NC1c1ccc(F)cc1 (stereo unspecified) + NC1CC1c1ccc(-c2cccc(O)c2)cc1 = 44.1
CC1COCCN1c1cc(C2(S(C)(=N)=O)CC2)nc(-c2ccnc3[nH]ccc23)n1 (stereo unspecified) + NC1CCC(NC2CC2c2ccccc2)CC1 = 106

# return viability, T/C for each item in the list
1. COc1cc(Nc2ncc3c(n2)-c2ccc(Cl)cc2C(c2c(F)cccc2OC)=NC3)ccc1C(=O)O + NC1CCC(NC2CC2c2ccccc2)CC1
2. CC(C)CC(NC(=O)C(Cc1ccccc1)NC(=O)c1cnccn1)B(O)O (stereo unspecified) + NC1CCC(NC2CC2c2ccccc2)CC1
3. COc1ccc([C@@H](O)c2cc(-c3ncnc4cc(N5CCOCC5)ccc34)c(F)cc2Cl)nn1 + NC1CC1c1ccc(-c2cccc(O)c2)cc1

Reply:
61.3
2.15
111
